Assay: Log D by octanol-PBS partition assay
Type: physicochemical
Conditions: pH 7.4, fluorescence readout
measured.property: logD
Write no unit; give the number alone.

Example entries and their recorded answers appear below.
query.smiles	logD
CN1CCN(C)CCN(Cc2cc(/C=C/c3ccc(-c4ccc(N(C)C)cc4)s3)cc(CN3CCN(C)CCN(C)CC3)c2O)CC1	1.03
CN1CCN(C)CCN(Cc2cc(-c3ccc(/C=C/c4ccc(N(C)C)cc4)s3)cc(CN3CCN(C)CCN(C)CC3)c2O)CC1	1.13
CN1CCN(C)CCN(Cc2cc(-c3ccc(/C=C/c4ccc(N(C)C)cc4)s3)ccc2O)CC1	0.83

Need logD of CN1CCN(C)CCN(Cc2cc(/C=C/c3ccc(-c4ccc(C=O)cc4)s3)ccc2O)CC1 , thanks.
1.11

Fill in the blank: the reported logD of COc1cc(-c2ccc(/C=C/c3ccc(N(C)C)cc3)s2)cc(CN2CCN(C)CCN(C)CC2)c1O is ____.
1.17

Given the entry COc1cc(/C=C/c2ccc(-c3ccc(N(C)C)cc3)s2)cc(CN2CCN(C)CCN(C)CC2)c1O , report its measured logD.
1.18

Find the recorded logD belonging to CN1CCN(C)CCN(Cc2cc(/C=C/c3ccc(-c4ccc(C=O)cc4)s3)cc(CN3CCN(C)CCN(C)CC3)c2O)CC1 and report it.
1.16

// returns reported logD for input COc1cc(OC)cc(-c2ccc(/C=C/c3cc(CN4CCN(C)CCN(C)CC4)c(O)c(OC)c3)cc2)c1
0.732
